# Experimental system: BRD3 (Homo sapiens (Human), UniProt Q15059)
# Sequence (Q15059 20-477): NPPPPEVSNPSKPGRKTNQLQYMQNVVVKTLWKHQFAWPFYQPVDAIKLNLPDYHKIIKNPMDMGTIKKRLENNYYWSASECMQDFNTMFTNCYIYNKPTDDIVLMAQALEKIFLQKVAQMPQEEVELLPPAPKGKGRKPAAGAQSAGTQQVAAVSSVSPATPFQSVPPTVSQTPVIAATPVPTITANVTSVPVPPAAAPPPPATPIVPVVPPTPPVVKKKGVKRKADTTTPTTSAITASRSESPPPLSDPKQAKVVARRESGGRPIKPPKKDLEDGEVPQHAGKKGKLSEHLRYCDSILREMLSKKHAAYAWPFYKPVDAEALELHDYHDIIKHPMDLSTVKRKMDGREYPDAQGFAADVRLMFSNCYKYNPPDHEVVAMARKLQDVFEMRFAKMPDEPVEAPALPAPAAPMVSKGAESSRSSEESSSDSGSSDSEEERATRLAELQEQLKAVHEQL
Measurement label: IC50 (nM)

Compound: Cc1cc(N2C(=O)c3cc(-c4ccc(=O)n(C)c4)n(C4CC4)c3C2c2ccc(Cl)cc2)cn(C)c1=O (stereo not shown)
Measurement label: IC50
Result units: nM
Observed measurement: 85
//
Compound: CNC(=O)c1cn(C)c2c1C(=O)N(c1cc(C)c3nnc(C(F)F)n3c1)C2c1ccc(Cl)cc1 (stereo not shown)
Measurement label: IC50
Result units: nM
Observed measurement: 23

(I) Cc1cc(N2C(=O)c3cc(-c4cccn(C)c4=O)n(C4CC4)c3C2c2ccc(Cl)cc2)cn(C)c1=O (stereo not shown)
(II) Cc1cn(C2CCN(C)C2=O)c2c1C(=O)N(c1cc(C)c3nnc(C)n3c1)C2c1ccc(Cl)cc1 (stereo not shown)
(III) Cc1cc(N2C(=O)c3cc(C)n(C)c3C2c2ccc(Cl)cc2)cn(C)c1=O (stereo not shown)
Order these by IC50, descending, and give the full ranking. Labels, requested order.
I, III, II

(1) Cn1c(-c2cccn(C)c2=O)cc2c1C(c1ccc(Cl)cc1)N(c1cc(Cl)c(=O)n(C)c1)C2=O (stereo not shown)
(2) CNC(=O)Nc1cn(C)c2c1C(=O)N(c1cc(C)c3nnc(C(F)F)n3n1)C2c1ccc(Cl)cc1 (stereo not shown)
(3) CNC(=O)Nc1cn(C)c2c1C(=O)N(c1cc(C)c3nnn(C)c3c1)C2c1ccc(Cl)cc1 (stereo not shown)
(4) COc1ccc(C2c3c(ccn3C)C(=O)N2c2cc(Cl)c(=O)n(C)c2)cc1 (stereo not shown)
Rank by IC50 (largest to smallest). // ordering of labels required in reply
4, 1, 3, 2
